tested on: Escherichia coli EC-1: VOGEL, mouse virulent; experiment: MIC determination, EC-1; type: cell-based; details: Escherichia coli, read-out: EC-1 (MIC), Table 3, lower of duplicate values
The following molecules are listed with their measured MIC values.
Output spec: scalar in µg/mL, unitless text.

[
  {
    "MOLECULE": "CC(CCn1cc(F)c(-c2ccc(F)cc2F)cc1=O)(C(=O)NO)S(C)(=O)=O (centres unmarked)",
    "READOUT NUMBER": 4
  },
  {
    "MOLECULE": "COc1c(F)cc(-c2cc(=O)n(CCC(C)(C(=O)NO)S(C)(=O)=O)cc2F)cc1F (centres unmarked)",
    "READOUT NUMBER": 4
  },
  {
    "MOLECULE": "CCOc1cc(-c2cc(=O)n(CCC(C)(C(=O)NO)S(C)(=O)=O)cc2F)ccn1 (centres unmarked)",
    "READOUT NUMBER": 8
  }
]

Task: Quick one: MIC of CC(CCn1cc(F)c(-c2ccccc2C#N)cc1=O)(C(=O)NO)S(C)(=O)=O (centres unmarked) ?
Result: 8

Task: Quick one: MIC of CC(CCn1cc(F)c(-c2cnc3ccccc3c2)cc1=O)(C(=O)NO)S(C)(=O)=O (centres unmarked) ?
Result: 16

Task: Quick one: MIC of CC(CCn1cc(F)c(-c2ccc(Cl)cc2)cc1=O)(C(=O)NO)S(C)(=O)=O (centres unmarked) ?
Result: 1

----------
target: Pseudomonas aeruginosa LpxC enzyme (Pseudomonas aeruginosa); construct: made in house; host or cells: E. coli; assay: IC50 assay, LpxC enzyme from P. aeruginosa (PA LpxC enzyme IC50); type: biochemical; conditions: PA:IC50, Table 3; LpxC enzyme 0.1 nM, 25° C., 1 hour
PROPERTY LABEL: IC50
Express your answer as a number followed by its unit.

Task: Quick one: IC50 of CC(CCn1cc(F)c(-c2ccccc2)cc1=O)(C(=O)NO)S(C)(=O)=O (stereo not shown) ?
Result: 2.8 nM

----------
target: Pseudomonas aeruginosa LpxC enzyme (Pseudomonas aeruginosa, UniProt P47205); construct: made in house; host or cells: E. coli; assay: IC50 assay, LpxC enzyme from P. aeruginosa (PA LpxC enzyme IC50); assay type: biochemical; conditions: Table 3; LpxC enzyme 0.1 nM, 25° C., 1 hour; read-out: PA:IC50
Sequence (P47205 whole entry): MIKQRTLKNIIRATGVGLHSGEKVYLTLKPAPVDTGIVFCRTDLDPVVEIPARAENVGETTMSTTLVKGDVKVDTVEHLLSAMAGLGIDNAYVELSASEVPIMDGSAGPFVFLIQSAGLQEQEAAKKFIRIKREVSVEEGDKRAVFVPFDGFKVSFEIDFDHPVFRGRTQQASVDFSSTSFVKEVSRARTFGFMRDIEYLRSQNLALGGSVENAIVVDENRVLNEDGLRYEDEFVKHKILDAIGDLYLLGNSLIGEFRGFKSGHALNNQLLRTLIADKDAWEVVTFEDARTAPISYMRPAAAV
PROPERTY LABEL: IC50 (nM)
Output spec: scalar in nM, unitless text.

Field: example entries. Status: answers known.
[
  {
    "COMPOUND": "CC(CCn1cc(F)c(-c2cccc(C#N)c2)cc1=O)(C(=O)NO)S(C)(=O)=O (centres unmarked)",
    "IC50, nM": 13
  },
  {
    "COMPOUND": "COc1ccccc1-c1cc(=O)n(CCC(C)(C(=O)NO)S(C)(=O)=O)cc1F (centres unmarked)",
    "IC50, nM": 12.9
  },
  {
    "COMPOUND": "CC(C)(C#N)c1ccc(-c2cc(=O)n(CCC(C)(C(=O)NO)S(C)(=O)=O)cc2F)cc1 (centres unmarked)",
    "IC50, nM": 3.9
  }
]

Attention now shifts to the item below.
Task: Request: IC50, test system Pseudomonas aeruginosa LpxC enzyme (Pseudomonas aeruginosa, UniProt P47205), entry COc1ccc(-c2cc(=O)n(CCC(C)(C(=O)NO)S(C)(=O)=O)cc2F)cc1 (centres unmarked)
Result: 1
